Listed here are binders together with their documented stoichiometry N.
Target: T1, Pellino 2 FHA (PELI2 residues 15-275) (human, UniProt Q9HAT8 15-275)
T1 construct: Cloned into pGEX-6P1; also called PELI2 (15–273); N-terminal PELI2 fragment; source: E. coli BL21 (DE3), purified (Glutathione Sepharose, 3C cleavage, gel filtration); not shown: GST, N-terminal, cleaved
T1 sequence (looked up): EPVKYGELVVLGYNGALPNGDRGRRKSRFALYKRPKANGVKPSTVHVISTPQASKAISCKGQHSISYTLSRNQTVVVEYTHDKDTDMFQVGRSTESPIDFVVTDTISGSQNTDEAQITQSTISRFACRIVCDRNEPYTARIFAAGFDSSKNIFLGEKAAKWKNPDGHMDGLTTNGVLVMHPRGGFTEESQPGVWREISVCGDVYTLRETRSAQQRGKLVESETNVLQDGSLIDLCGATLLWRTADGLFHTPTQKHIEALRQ
Assay: ITC; peptide in the syringe (typically 160 μM), protein in the cell (16 μM); 25 mM HEPES pH 7.0, 200 mM NaCl, 1 mM TCEP; single-site binding model
Conditions: both partners purified
Square brackets hold non-standard residues; d marks the D form. pT = C[C@@H](OP(=O)(O)O)[C@H](N)C(=O)O
Quick one: just the number, no unit, thanks!

Ac-AYSSAS[pT]FLYP-NH2 (SMILES CC(=O)N[C@@H](C)C(=O)N[C@@H](Cc1ccc(O)cc1)C(=O)N[C@@H](CO)C(=O)N[C@@H](CO)C(=O)N[C@@H](C)C(=O)N[C@@H](CO)C(=O)N[C@H](C(=O)N[C@@H](Cc1ccccc1)C(=O)N[C@@H](CC(C)C)C(=O)N[C@@H](Cc1ccc(O)cc1)C(=O)N1CCC[C@H]1C(N)=O)[C@@H](C)OP(=O)(O)O, two N-terminal residues as in the other ITC peptides; IRAK1, stretch around T141 with tyrosine at pT+3; also called IRAK-pT141(+3Y); source: synthetic peptide) [IRAK1-pT141(+3Y) phosphopeptide (AYSSASpTFLYP)]
0.59
Ac-AYEDEP[pT]QAFA-NH2 (SMILES CC(=O)N[C@@H](C)C(=O)N[C@@H](Cc1ccc(O)cc1)C(=O)N[C@@H](CCC(=O)O)C(=O)N[C@@H](CC(=O)O)C(=O)N[C@@H](CCC(=O)O)C(=O)N1CCC[C@H]1C(=O)N[C@H](C(=O)N[C@@H](CCC(N)=O)C(=O)N[C@@H](C)C(=O)N[C@@H](Cc1ccccc1)C(=O)N[C@@H](C)C(N)=O)[C@@H](C)OP(=O)(O)O) [MDC1-pT719 phosphopeptide for ITC (AYEDEPpTQAFA)]
0.52

Below: the item to evaluate.
Look up stoichiometry N for this binder: Ac-AYDLQA[pT]QCFA-NH2 (SMILES CC(=O)N[C@@H](C)C(=O)N[C@@H](Cc1ccc(O)cc1)C(=O)N[C@@H](CC(=O)O)C(=O)N[C@@H](CC(C)C)C(=O)N[C@@H](CCC(N)=O)C(=O)N[C@@H](C)C(=O)N[C@H](C(=O)N[C@@H](CCC(N)=O)C(=O)N[C@@H](CS)C(=O)N[C@@H](Cc1ccccc1)C(=O)N[C@@H](C)C(N)=O)[C@@H](C)OP(=O)(O)O, human MDC1, stretch around T699 with alanine at pT+4; source: synthetic peptide) [MDC1-pT699 phosphopeptide for ITC (AYDLQApTQCFA)]
0.55
